Cited source: patent US9309242B2

- Target system: FGFR4 (h) (Homo sapiens)
- Experiment: FGFR4 (enzymatic assay), TR-FRET
- Assay type: biochemical
- Run parameters: FGFR 4 pIC50, enzymatic assay
Consider the following compounds and their measured IC50 readings.

[
  {
    "Compound": "COc1cc(OC)cc(N(Cc2ncc[nH]2)c2ccc3ncc(-c4cnn(C5CCNCC5)c4)nc3n2)c1 [Compound 227]",
    "IC50": "1.82 nM"
  }
]

# return IC50 for COc1cc(OC)c(F)c(N(Cc2ncc[nH]2)c2ccc3ncc(-c4cn[nH]c4)nc3n2)c1 [Compound 190] , test system: FGFR4 (h) (Homo sapiens)
1.12 nM

# return IC50 for COc1cc(OC)c(F)c(N(CC(=O)NCCO)c2ccc3ncc(-c4cnn(C)c4)nc3n2)c1 [Compound 230] , test system: FGFR4 (h) (Homo sapiens)
42.7 nM

----------
- Target system: KDR (h) (Homo sapiens)
- Sequence (P35968 20-1356): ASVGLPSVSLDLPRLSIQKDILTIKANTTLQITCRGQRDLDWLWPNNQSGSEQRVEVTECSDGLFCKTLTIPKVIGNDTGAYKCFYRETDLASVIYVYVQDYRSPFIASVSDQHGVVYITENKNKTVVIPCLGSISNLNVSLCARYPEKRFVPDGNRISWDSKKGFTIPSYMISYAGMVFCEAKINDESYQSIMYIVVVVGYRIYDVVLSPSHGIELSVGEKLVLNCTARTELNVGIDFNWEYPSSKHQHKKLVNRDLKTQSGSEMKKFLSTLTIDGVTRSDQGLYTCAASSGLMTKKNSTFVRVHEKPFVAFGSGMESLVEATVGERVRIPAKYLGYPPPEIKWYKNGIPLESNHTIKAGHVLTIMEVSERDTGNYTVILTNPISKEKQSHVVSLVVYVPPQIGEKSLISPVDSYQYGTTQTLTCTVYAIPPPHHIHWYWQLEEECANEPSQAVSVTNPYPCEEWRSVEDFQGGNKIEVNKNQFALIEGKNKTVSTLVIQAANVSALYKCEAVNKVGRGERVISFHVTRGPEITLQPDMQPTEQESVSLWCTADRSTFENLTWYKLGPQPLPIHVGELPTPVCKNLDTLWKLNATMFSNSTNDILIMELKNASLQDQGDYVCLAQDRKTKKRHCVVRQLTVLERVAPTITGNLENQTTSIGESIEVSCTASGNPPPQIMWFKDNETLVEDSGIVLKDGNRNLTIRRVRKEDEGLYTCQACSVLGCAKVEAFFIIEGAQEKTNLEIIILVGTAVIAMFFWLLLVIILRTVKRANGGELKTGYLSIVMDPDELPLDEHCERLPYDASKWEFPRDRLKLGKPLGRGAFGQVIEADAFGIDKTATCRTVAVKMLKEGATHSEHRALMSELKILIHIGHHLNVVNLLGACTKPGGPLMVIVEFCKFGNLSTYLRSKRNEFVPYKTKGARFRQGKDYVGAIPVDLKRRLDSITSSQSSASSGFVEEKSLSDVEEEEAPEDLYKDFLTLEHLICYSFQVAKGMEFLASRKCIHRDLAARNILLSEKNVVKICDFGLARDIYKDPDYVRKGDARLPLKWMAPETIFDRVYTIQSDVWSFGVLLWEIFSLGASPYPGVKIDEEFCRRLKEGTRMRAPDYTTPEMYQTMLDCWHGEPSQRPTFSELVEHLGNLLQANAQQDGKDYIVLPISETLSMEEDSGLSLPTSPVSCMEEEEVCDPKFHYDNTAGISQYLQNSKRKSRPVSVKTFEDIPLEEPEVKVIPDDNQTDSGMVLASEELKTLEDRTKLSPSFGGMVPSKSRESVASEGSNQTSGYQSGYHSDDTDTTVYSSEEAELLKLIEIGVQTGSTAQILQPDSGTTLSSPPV
- Experiment: KDR (VEGFR2) (enzymatic assay), TR-FRET
- Format: biochemical
- Run parameters: average values if tested multiple times, read-out: VEGFR 2 (KDR) pIC50 (converted)
Consider the following compounds and their measured IC50 readings.
Dear colleague, please return just the value in nM, with no unit written.

Consider the reported IC50 for these compounds:
[
  {
    "Compound": "COc1cc(OC)c(Cl)c(N(Cc2ncc[nH]2)c2ccc3ncc(-c4cnn(C)c4)nc3n2)c1Cl [Compound 98]",
    "Target system": "KDR (h) (Homo sapiens)",
    "IC50, nM": 16.6
  },
  {
    "Compound": "COc1cc(OC)c(F)c(N(Cc2cnccn2)c2ccc3ncc(-c4cnn(C)c4)nc3n2)c1F [Compound 10]",
    "Target system": "KDR (h) (Homo sapiens)",
    "IC50, nM": 31.6
  },
  {
    "Compound": "COc1cc(OC)c(F)c(/N=c2\\ccc3ncc(-c4cnn(C)c4)nc3n2CC(O)COC(C)C)c1F (stereo not drawn) [Compound 64]",
    "Target system": "KDR (h) (Homo sapiens)",
    "IC50, nM": 7.41
  }
]

From here, focus on the item given below.
Quote IC50 reported for COc1cc(OC)c(F)c(N(Cc2ccnn2C)c2ccc3ncc(-c4cnn(C)c4)nc3n2)c1 [Compound 113] please.
51.3

----------
- Target system: Ba/F3-FGFR4-transfected cells (Homo sapiens, UniProt P22455)
- Sequence (P22455 whole entry, change not shown): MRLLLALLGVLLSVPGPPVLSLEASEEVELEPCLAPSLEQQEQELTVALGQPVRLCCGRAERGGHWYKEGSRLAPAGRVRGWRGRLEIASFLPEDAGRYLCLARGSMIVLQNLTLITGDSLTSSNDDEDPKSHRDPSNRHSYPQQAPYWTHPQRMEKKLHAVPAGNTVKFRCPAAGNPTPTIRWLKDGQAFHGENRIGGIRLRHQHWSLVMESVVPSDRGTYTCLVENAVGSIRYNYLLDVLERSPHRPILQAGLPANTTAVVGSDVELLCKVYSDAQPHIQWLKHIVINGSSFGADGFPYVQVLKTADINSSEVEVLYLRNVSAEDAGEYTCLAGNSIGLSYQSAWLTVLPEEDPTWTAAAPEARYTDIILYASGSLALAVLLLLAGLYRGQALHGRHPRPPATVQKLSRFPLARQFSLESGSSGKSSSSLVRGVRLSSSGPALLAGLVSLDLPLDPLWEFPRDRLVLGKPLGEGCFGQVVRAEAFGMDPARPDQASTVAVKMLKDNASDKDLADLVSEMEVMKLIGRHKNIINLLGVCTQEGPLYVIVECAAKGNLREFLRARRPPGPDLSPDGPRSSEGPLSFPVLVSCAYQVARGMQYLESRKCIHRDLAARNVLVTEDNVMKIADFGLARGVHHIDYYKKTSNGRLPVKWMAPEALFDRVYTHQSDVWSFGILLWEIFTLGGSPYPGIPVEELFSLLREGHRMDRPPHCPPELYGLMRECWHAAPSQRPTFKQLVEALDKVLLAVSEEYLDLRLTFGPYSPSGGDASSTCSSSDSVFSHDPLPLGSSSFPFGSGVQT
- Experiment: Ba/F3-FGFR4 cellular proliferation assay, Alamar Blue
- Assay type: cell-based
Tick yes (1) if BAF3-FGFR4 pIC50 is 7 or greater. Tick no (0) if BAF3-FGFR4 pIC50 is less than 7.

[
  {
    "Compound": "COc1cc(/N=c2\\ccc3ncc(-c4cnn(CC(C)(C)O)c4)nc3n2CC(C)(C)O)c(F)c(OC)c1 (single isomer, unassigned) [Compound 207]",
    "Group": "no (0)"
  },
  {
    "Compound": "COc1cc(/N=c2\\ccc3ncc(-c4cnn(C)c4)nc3n2CC(O)COC(C)C)c(F)c(OC)c1 (single isomer, unassigned) [Compound 77]",
    "Group": "no (0)"
  },
  {
    "Compound": "COc1cc(OC)c(F)c(N(CC2CCC(=O)N2C)c2ccc3ncc(-c4cnn(C)c4)nc3n2)c1 (stereo not shown) [Compound 161]",
    "Group": "no (0)"
  }
]

Hi, just wondering whether COc1cc(OC)c(F)c(N(Cc2c[nH]c(C)n2)c2ccc3ncc(-c4cnn(C)c4)nc3n2)c1 [Compound 137] shows BAF3-FGFR4 pIC50 of 7 or higher.
yes (1)

Hi, just wondering whether COc1cc(/N=c2\ccc3ncc(-c4cnn(C)c4)nc3n2CCN2CCCC2=O)c(F)c(OC)c1 [Compound 156] shows BAF3-FGFR4 pIC50 of 7 or higher.
no (0)

Hi, just wondering whether COc1cc(OC)c(F)c(N(Cc2ncc[nH]2)c2ccc3ncc(-c4cnn(CCCN)c4)nc3n2)c1 [Compound 295] shows BAF3-FGFR4 pIC50 of 7 or higher.
yes (1)

----------
- Target system: FGFR4 (h) (Homo sapiens, UniProt P22455)
- Sequence (P22455 22-802): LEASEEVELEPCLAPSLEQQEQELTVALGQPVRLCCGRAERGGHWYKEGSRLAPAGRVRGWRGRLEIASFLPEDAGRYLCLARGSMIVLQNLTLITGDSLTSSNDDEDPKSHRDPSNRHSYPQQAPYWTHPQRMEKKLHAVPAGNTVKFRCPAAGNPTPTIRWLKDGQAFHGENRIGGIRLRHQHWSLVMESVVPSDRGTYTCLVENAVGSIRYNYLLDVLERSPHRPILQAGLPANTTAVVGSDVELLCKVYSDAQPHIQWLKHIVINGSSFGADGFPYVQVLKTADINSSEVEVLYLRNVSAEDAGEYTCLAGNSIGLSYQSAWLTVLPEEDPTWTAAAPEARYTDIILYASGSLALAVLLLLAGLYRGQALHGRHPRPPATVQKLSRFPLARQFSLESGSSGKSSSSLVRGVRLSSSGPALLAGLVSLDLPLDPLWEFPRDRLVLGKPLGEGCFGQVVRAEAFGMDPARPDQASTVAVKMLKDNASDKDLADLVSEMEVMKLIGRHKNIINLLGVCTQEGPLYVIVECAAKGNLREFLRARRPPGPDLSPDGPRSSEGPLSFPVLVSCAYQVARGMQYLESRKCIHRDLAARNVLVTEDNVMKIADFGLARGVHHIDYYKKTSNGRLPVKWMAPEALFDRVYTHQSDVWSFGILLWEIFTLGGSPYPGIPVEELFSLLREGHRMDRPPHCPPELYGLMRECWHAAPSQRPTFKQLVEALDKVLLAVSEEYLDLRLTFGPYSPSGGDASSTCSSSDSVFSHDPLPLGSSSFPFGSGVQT
- Experiment: FGFR4 (enzymatic assay), TR-FRET
- Format: biochemical
- Run parameters: FGFR 4 pIC50, enzymatic assay; average values if tested multiple times
Measurement label: IC50 (nM)
Dear colleague, please return just the value in nM, with no unit written.

Consider the reported IC50 for these compounds:
[
  {
    "Compound": "COc1cc(OC)c(F)c(N(CC(O)COC(C)C)c2ccc3ncc(-c4cnn(C)c4)nc3n2)c1F (stereo not shown) [Compound 62]",
    "IC50 / nM": 3.31
  },
  {
    "Compound": "COc1cc(OC)c(F)c(/N=c2\\ccc3ncc(-c4cnn(C)c4)nc3n2CC(O)COC(C)C)c1F (stereo not shown) [Compound 64]",
    "IC50 / nM": 1
  }
]

Quote IC50 reported for COc1cc(OC)c(F)c(N(Cc2c[nH]cn2)c2ccc3ncc(-c4cnn(C)c4)nc3n2)c1 [Compound 41] please.
0.759

Quote IC50 reported for COc1cc(OC)c(F)c(N(Cc2nc[nH]n2)c2ccc3ncc(-c4cnn(C)c4)nc3n2)c1 [Compound 86] please.
1.12

----------
Where a name gives a salt, the structure may show the parent alone.
The threshold is 100 °C. Values of melting point beneath it are tagged MET; values meeting or exceeding it are tagged NOT MET.

Does COCC(O)Cn1/c(=N/c2cc(OC)cc(OC)c2F)ccc2ncc(-c3cnn(C)c3)nc21 (single isomer, unassigned) have melting point strictly under 100 °C?
NOT MET

Does "CNCCn1ccnc1CN(c1ccc2ncc(-c3cnn(C)c3)nc2n1)c1cc(OC)cc(OC)c1F" have melting point strictly under 100 °C?
MET

Does COc1cc(OC)cc(N(CC2CCCCO2)c2ccc3ncc(-c4cnn(C)c4)nc3n2)c1 (centres unmarked) have melting point strictly under 100 °C?
NOT MET

Does COc1cc(OC)cc(N(Cc2ncc[nH]2)c2ccc3ncc(-c4cnn(C)c4)nc3n2)c1 (as salt: fumarate) [Compound 24] have melting point strictly under 100 °C?
NOT MET

Does COc1cc(OC)c(F)c(N(CC2CCCCO2)c2ccc3ncc(-c4cnn(C)c4)nc3n2)c1 (centres unmarked) have melting point strictly under 100 °C?
MET

----------
- Target system: FGFR3 (h) (Homo sapiens, UniProt P22607)
- Sequence (P22607 23-806): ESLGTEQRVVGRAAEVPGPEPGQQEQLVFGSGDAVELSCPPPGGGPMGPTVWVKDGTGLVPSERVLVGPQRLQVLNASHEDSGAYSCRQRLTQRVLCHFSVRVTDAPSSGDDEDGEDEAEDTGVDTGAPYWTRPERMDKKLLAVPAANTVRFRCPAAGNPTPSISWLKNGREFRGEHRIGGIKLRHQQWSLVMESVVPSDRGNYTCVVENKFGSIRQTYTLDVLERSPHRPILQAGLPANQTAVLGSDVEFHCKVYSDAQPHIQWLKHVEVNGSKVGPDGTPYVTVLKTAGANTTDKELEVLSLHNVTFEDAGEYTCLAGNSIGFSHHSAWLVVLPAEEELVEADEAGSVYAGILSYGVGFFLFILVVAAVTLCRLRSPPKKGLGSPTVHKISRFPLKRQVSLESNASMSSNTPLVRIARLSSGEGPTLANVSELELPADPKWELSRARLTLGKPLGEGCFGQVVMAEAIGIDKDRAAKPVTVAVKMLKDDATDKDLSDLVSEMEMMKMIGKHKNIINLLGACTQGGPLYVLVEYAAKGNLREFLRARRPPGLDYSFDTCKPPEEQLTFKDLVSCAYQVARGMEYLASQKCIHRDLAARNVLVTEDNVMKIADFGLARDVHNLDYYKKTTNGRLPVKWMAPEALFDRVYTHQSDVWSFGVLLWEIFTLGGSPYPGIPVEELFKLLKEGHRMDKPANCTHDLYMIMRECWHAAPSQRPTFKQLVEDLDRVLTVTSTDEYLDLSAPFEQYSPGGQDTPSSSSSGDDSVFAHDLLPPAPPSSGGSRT
- Experiment: FGFR3 (enzymatic assay), TR-FRET
- Assay type: biochemical
- Run parameters: average values if tested multiple times, read-out: FGFR 3 pIC50 (converted)
Consider the following compounds and their measured IC50 readings.
Dear colleague, please return just the value in nM, with no unit written.

Consider the reported IC50 for these compounds:
[
  {
    "Compound": "COc1cc(OC)c(F)c(N(Cc2c[nH]cn2)c2ccc3ncc(-c4cnn(C)c4)nc3n2)c1",
    "Target system": "FGFR3 (h) (Homo sapiens, UniProt P22607)",
    "Measurement label": "IC50",
    "Numeric result": 0.589
  },
  {
    "Compound": "COc1cc(OC)c(F)c(N(CC2CCC(=O)N2)c2ccc3ncc(-c4cnn(C)c4)nc3n2)c1F (stereo not shown) [Compound 192]",
    "Target system": "FGFR3 (h) (Homo sapiens, UniProt P22607)",
    "Measurement label": "IC50",
    "Numeric result": 1.55
  },
  {
    "Compound": "CNCCn1/c(=N/c2c(F)ccc(OC)c2Cl)ccc2ncc(-c3cnn(C)c3)nc21",
    "Target system": "FGFR3 (h) (Homo sapiens, UniProt P22607)",
    "Measurement label": "IC50",
    "Numeric result": 38.9
  }
]

From here, focus on the item given below.
Quote IC50 reported for "COc1cc(OC)c(F)c(N(Cc2nc3c([nH]2)CCNC3)c2ccc3ncc(-c4cnn(C)c4)nc3n2)c1" please.
3.09

----------
- Target system: FGFR2 (h) (Homo sapiens, UniProt P21802)
- Sequence (P21802 22-821): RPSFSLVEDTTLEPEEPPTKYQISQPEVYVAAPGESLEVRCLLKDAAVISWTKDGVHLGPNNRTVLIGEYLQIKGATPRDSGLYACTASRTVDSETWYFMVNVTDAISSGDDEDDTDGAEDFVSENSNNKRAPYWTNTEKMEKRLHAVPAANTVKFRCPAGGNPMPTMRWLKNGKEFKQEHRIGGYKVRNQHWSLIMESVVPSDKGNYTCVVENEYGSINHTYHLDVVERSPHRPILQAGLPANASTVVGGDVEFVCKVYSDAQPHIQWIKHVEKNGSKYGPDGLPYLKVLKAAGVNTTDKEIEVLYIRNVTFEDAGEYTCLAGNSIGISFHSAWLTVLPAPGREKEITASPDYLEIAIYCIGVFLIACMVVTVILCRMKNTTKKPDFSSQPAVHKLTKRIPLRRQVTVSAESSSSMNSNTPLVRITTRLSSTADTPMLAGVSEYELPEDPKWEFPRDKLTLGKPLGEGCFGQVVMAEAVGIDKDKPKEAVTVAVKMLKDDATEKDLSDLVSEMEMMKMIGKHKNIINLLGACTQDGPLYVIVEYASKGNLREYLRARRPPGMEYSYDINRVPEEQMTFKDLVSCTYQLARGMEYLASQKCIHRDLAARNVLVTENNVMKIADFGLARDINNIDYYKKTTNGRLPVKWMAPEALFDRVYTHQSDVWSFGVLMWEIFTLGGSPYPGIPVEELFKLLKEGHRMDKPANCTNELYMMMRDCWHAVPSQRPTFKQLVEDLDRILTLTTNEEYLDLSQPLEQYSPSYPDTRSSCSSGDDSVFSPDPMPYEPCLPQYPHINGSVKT
- Experiment: FGFR2 (enzymatic assay), TR-FRET
- Type: biochemical
- Run parameters: enzymatic assay; read-out: FGFR 2 pIC50 (converted)
Measurement label: IC50 (nM)
Dear colleague, please return just the value in nM, with no unit written.

Consider the reported IC50 for these molecules:
[
  {
    "Molecule": "COc1cc(/N=c2\\ccc3ncc(-c4cnn(CC(C)(C)O)c4)nc3n2CC2CCC(=O)N2)c(F)c(OC)c1 (stereo not shown) [Compound 286]",
    "Measurement label": "IC50",
    "Numeric result": 2.04
  },
  {
    "Molecule": "COc1cc(OC)c(F)c(N(CC(=O)NC(C)C)c2ccc3ncc(-c4cnn(C)c4)nc3n2)c1 [Compound 249]",
    "Measurement label": "IC50",
    "Numeric result": 4.79
  },
  {
    "Molecule": "COc1cc(OC)cc(N(Cc2nnc(N)o2)c2ccc3ncc(-c4cnn(C)c4)nc3n2)c1 [Compound 188]",
    "Measurement label": "IC50",
    "Numeric result": 1.35
  }
]

From here, focus on the item given below.
Quote IC50 reported for COc1cc(OC)c(F)c(N(Cc2ncc[nH]2)c2ccc3ncc(-c4cnn(CCS(C)(=O)=O)c4)nc3n2)c1 [Compound 264] please.
1.86
